Molecular target: T1, IGF-II (amino acids 1-67) (human, UniProt P01344 25-91)
T1 construct: mature; also called IGF-II (67aa); IGF2
T1 sequence (P01344 25-91): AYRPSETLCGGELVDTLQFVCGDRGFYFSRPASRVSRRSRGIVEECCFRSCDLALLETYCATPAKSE
Assay: competition SPR (Biacore T100), affinity in solution: Fab pre-incubated with ligand, free ligand read on immobilized huIR-A ECD; measurement #2; head prints 'KD nM'
Method: Competition SPR (BIACORE®) was performed under conditions of partially mass-transport limited conditions according to previously described methodology (Nieba et al., 1996). Approximately 16,700 relative response units (RU) of huIR-A (-exon11) ectodomain was coupled by standard amine chemistry to a BIACORE® CM5 chip sensor. Uncoated flow-cell surface was used as a reference. […] Regeneration of the surface was achieved by injection of 30 ul NaCltrate/NaCl pH 4.5. […]
pKd: −log10 of the molar value.
Catalogue of binders with associated pKd

{"Binder": "M0064-E04 Fab (Fab, V domains shown, Soluble Fab from phage display; also called M0064-E04(R0032-A03); 566A-M0064-E04) VH: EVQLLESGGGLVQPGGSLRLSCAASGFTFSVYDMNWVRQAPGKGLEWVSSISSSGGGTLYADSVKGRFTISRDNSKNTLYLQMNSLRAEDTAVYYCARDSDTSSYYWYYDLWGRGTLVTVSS VL: DIQMTQSPSSLSASVGDRVTITCQASHDISNYLNWYQQKPGKAPKLLIYAASRLQSGVPSRFSGGGSGTDFSLTISSLQAEDFATYYCQQSYSFPRTFGQGTNLEIKR", "pKd": 8.95}
{"Binder": "M0063-F02 Fab (Fab, V domains shown, Soluble Fab from phage display; also called M0063-F02(R0032-A01)) VH: EVQLLESGGGLVQPGGSLRLSCAASGFTFSKYEMDWVRQAPGKGLEWVSVISSSGGGTIYADSVKGRFTISRDNSKNTLYLQMNSLRAEDTAMYYCARGRTLYGGAFDIWGQGTMVTVSS VL: DIQMTQSPSSLSASVGDRVTITCRASQPINTYLNWYQQRPGKAPRILIYTSSTLQSGVPSRFSGSGSGTDFTLTISSVQPEDFATYYCQQSYSFPLTFGGGTKVEIKR", "pKd": 9.07}
{"Binder": "M0072-C06 Fab (Fab, V domains shown, Soluble Fab from phage display; Often printed as M0072-006; also called M0072-006; M0072-C06(R0032-A09)) VH: EVQLLESGGGLVQPGGSLRLSCAASGFTFSAYIMTWVRQAPGKGLEWVSSISPSGGYTVYADSVKGRFTISRDNSKNTLYLQMNSLRAEDTAVYYCARDSGFGDPFDYWGQGTMVTVSS VL: DIQMTQSPSSLSASVGDRVTITCRASQSIRNYLNWYQQKPGKAPKLLIYAASKLEDGVPSRFSGSGTGTDFTLTIRSLQPEDFASYFCQQSYSSPGITFGPGTKVEIKR", "pKd": 8.60}
{"Binder": "M0064-F02 Fab (Fab, V domains shown, Soluble Fab from phage display; also called M0064-F02(R0032-A11); 566A-M0064-F02) VH: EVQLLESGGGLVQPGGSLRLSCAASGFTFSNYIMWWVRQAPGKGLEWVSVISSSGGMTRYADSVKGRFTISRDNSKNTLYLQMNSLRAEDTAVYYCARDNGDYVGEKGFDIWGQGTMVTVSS VL: DIQMTQSPSSLSASVGDRVTITCRASQSISNYLNWYQQKPGKAPKLLIYTASTLQSGVPSRFSGSASGTDFTLTINSLQPEDFATYSCQQSYNSPWTFGQGTKVEIKR", "pKd": 9.30}
